Biological target: purified recombinant linear UB trimers

protein | linear UB polymer cleavage activity
OTU1-C92S (protein) MQNQIDMVKDEAEVAASISAIKGEEWGNCSSVEDQPSFQEEEAAKVPYVGDKEPLSSLAAEYQSGSPILLEKIKILDSQYIGIRRTRGDGNSFFRSFMFSYLEHILESQDRAEVDRIKVNVEKCRKTLQNLGYTDFTFEDFFALFLEQLDDILQGTEESISYDELVNRSRDQSVSDYIVMFFRFVTAGDIRTRADFFEPFITGLSNATVDQFCKSSVEPMGEESDHIHITALSDALGVAIRVVYLDRSSCDSGGVTVNHHDFVPVGITNEKDEEASAPFITLLYRPGHYDILYPKPSCKVSDNVGK | generally abolished
GST-OTU4c-C136S (protein) MMICYSPITTCSRNAISIKRHLGSRLYGVVAHGSSKFSCYSLLSGLSRRHYTGFRVSVSNRPSSWHDKGLFGFAYTGVIVSLLVCYSSTSQSAYADSSRDKDANNVHHHSSDGKFHNGKRVYTDYSIIGIPGDGRSLFRSVAHGFCLRSGKLAPGEKMQRELADELRTRVADEFIQRRQETEWFVEGDFDTYVRQIRDPHVWGGEPELFMASHVLQMPITVYMKDDKAGGLISIAEYGQEYGKDDPIRVLYHGFGHYDALLLHESKASIPKSKL | generally abolished
OTU1-H288R (protein) MQNQIDMVKDEAEVAASISAIKGEEWGNCSSVEDQPSFQEEEAAKVPYVGDKEPLSSLAAEYQSGSPILLEKIKILDSQYIGIRRTRGDGNCFFRSFMFSYLEHILESQDRAEVDRIKVNVEKCRKTLQNLGYTDFTFEDFFALFLEQLDDILQGTEESISYDELVNRSRDQSVSDYIVMFFRFVTAGDIRTRADFFEPFITGLSNATVDQFCKSSVEPMGEESDHIHITALSDALGVAIRVVYLDRSSCDSGGVTVNHHDFVPVGITNEKDEEASAPFITLLYRPGRYDILYPKPSCKVSDNVGK | generally abolished
